meta.source: ChEMBL document CHEMBL3098020

- target or test system: Adenosine receptor A3 (Homo sapiens)
- assay procedure: Displacement of [3H]-MRE-3008-F20 from human adenosine A3 receptor expressed in CHO cell membranes at 10 uM by scintillation counting analysis relative to control
inhibition vs 2%: at or above is YES, below is NO.

# chem smiles, classification
rows = [
    ("COc1ccc(-c2sc(N)c(C(=O)c3ccc(Cl)cc3)c2C)cc1", "NO"),
    ("CC(C)(C)Cc1c(-c2ccccc2)sc(N)c1C(=O)c1ccc(Cl)c(Cl)c1", "YES"),
    ("Cc1ccc(-c2sc(N)c(C(=O)c3ccc(Cl)cc3)c2CC(C)(C)C)cc1", "NO"),
    ("CC(C)(C)Cc1c(-c2ccc(F)cc2)sc(N)c1C(=O)c1ccc(Cl)cc1", "YES"),
    ("CC(C)(C)Cc1c(/C=C/c2ccc(Cl)cc2)sc(N)c1C(=O)c1ccc(Cl)cc1", "YES"),
    ("Cc1cccc(-c2sc(N)c(C(=O)c3ccc(Cl)cc3)c2CC(C)(C)C)c1", "NO"),
    ("Cc1sc(N)c(C(=O)c2ccc(Cl)cc2)c1-c1ccccc1", "NO"),
    ("Cc1ccc(C(=O)c2c(N)sc(Br)c2CC(C)(C)C)cc1", "NO"),
    ("CC(C)(C)Cc1c(-c2cccc(F)c2F)sc(N)c1C(=O)c1ccc(Cl)cc1", "NO"),
    ("CC(C)(C)Cc1c(Br)sc(N)c1C(=O)c1ccc(Cl)c(Cl)c1", "NO"),
    ("CC(C)(C)Cc1c(Br)sc(N)c1C(=O)c1cccc(Cl)c1", "NO"),
    ("CC(C)(C)Cc1c(-c2cccs2)sc(N)c1C(=O)c1ccc(Cl)cc1", "NO"),
    ("CC(C)(C)Cc1c(-c2ccccc2)sc(N)c1C(=O)c1cccc(Cl)c1", "YES"),
    ("CC(C)(C)Cc1c(-c2ccccn2)sc(N)c1C(=O)c1ccc(Cl)cc1", "NO"),
    ("COc1ccc(-c2sc(N)c(C(=O)c3cccc(C(F)(F)F)c3)c2CC(C)(C)C)cc1", "NO"),
    ("CC(C)(C)Cc1c(Br)sc(N)c1C(=O)c1ccc(Cl)cc1", "NO"),
    ("CC(C)(C)Cc1c(-c2ccsc2)sc(N)c1C(=O)c1ccc(Cl)cc1", "YES"),
    ("CC(C)(C)Cc1csc(N)c1C(=O)c1cccc(Cl)c1", "YES"),
    ("CC(C)(C)Cc1c(-c2ccccc2)sc(N)c1C(=O)c1cccc(C(F)(F)F)c1", "NO"),
]

* * *

- target or test system: UniProtKB P30542
- assay procedure: Allosteric enhancement of human adenosine A1 receptor expressed in CHO cells assessed as inhibition of forskolin-stimulated cAMP production at 100 nM preincubated for 10 mins followed by forskolin challenge measured after 5 mins by scintillation counting analysis in presence of CCPA relative to control
- Type: functional, cell-based

# chem smiles, inhibition
rows = [
    ("CC(C)(C)Cc1c(-c2ccccc2)sc(N)c1C(=O)c1ccc(Cl)c(Cl)c1", "57%"),
    ("CC(C)(C)Cc1c(-c2ccc(F)cc2F)sc(N)c1C(=O)c1ccc(Cl)cc1", "49%"),
    ("CC(C)(C)Cc1c(-c2cccnc2)sc(N)c1C(=O)c1ccc(Cl)cc1", "41%"),
]

* * *

- target or test system: Adenosine receptor A1 (Homo sapiens) (UniProt P30542)
- Sequence (P30542 whole entry): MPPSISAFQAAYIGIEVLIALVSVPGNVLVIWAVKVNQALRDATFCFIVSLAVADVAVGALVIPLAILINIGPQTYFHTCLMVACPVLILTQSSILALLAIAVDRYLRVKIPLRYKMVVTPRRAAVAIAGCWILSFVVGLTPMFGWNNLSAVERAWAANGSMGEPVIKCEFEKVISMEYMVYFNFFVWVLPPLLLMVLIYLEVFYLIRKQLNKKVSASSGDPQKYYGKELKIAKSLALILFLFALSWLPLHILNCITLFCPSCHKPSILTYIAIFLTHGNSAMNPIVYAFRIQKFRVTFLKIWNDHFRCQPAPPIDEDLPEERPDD
- assay procedure: Potentiation of [3H]CCPA binding to human adenosine A1 receptor expressed in CHO cell membranes at 10 uM after 90 mins relative to [3H]CCPA-treated control
recorded metric: fold change (FC)

# chem smiles, target or test system, recorded metric, reported result
measured = [
    ("COc1ccc(-c2sc(N)c(C(=O)c3ccc(Cl)c(Cl)c3)c2CC(C)(C)C)cc1", "Adenosine receptor A1 (Homo sapiens) (UniProt P30542)", "fold change (FC)", 6),
    ("COc1ccccc1-c1sc(N)c(C(=O)c2ccc(Cl)cc2)c1CC(C)(C)C", "Adenosine receptor A1 (Homo sapiens) (UniProt P30542)", "fold change (FC)", 2.5),
    ("CC(C)(C)Cc1c(-c2cccnc2)sc(N)c1C(=O)c1ccc(Cl)cc1", "Adenosine receptor A1 (Homo sapiens) (UniProt P30542)", "fold change (FC)", 3.7),
    ("CC(C)(C)Cc1c(Br)sc(N)c1C(=O)c1ccc(Cl)c(Cl)c1", "Adenosine receptor A1 (Homo sapiens) (UniProt P30542)", "fold change (FC)", 4.5),
    ("CC(C)(C)Cc1c(-c2cn[nH]c2)sc(N)c1C(=O)c1ccc(Cl)cc1", "Adenosine receptor A1 (Homo sapiens) (UniProt P30542)", "fold change (FC)", 2.5),
    ("CC(C)c1ccc(-c2sc(N)c(C(=O)c3ccc(Cl)cc3)c2CC(C)(C)C)cc1", "Adenosine receptor A1 (Homo sapiens) (UniProt P30542)", "fold change (FC)", 5.6),
    ("Cc1sc(N)c(C(=O)c2ccc(Cl)cc2)c1-c1ccccc1", "Adenosine receptor A1 (Homo sapiens) (UniProt P30542)", "fold change (FC)", 1.4),
    ("CC(C)(C)Cc1csc(N)c1C(=O)c1ccc(Cl)c(Cl)c1", "Adenosine receptor A1 (Homo sapiens) (UniProt P30542)", "fold change (FC)", 4.1),
    ("COc1ccc(-c2sc(N)c(C(=O)c3ccc(Cl)cc3)c2C)cc1", "Adenosine receptor A1 (Homo sapiens) (UniProt P30542)", "fold change (FC)", 2.1),
    ("Cc1ccc(C(=O)c2c(CC(C)(C)C)csc2N)cc1", "Adenosine receptor A1 (Homo sapiens) (UniProt P30542)", "fold change (FC)", 3.3),
    ("CC(C)(C)Cc1c(-c2ccsc2)sc(N)c1C(=O)c1ccc(Cl)cc1", "Adenosine receptor A1 (Homo sapiens) (UniProt P30542)", "fold change (FC)", 6.4),
    ("CC(C)(C)Cc1c(-c2ccc(F)cc2F)sc(N)c1C(=O)c1ccc(Cl)cc1", "Adenosine receptor A1 (Homo sapiens) (UniProt P30542)", "fold change (FC)", 5.3),
    ("CC(C)(C)Cc1csc(N)c1C(=O)c1cccc(C(F)(F)F)c1", "Adenosine receptor A1 (Homo sapiens) (UniProt P30542)", "fold change (FC)", 2.6),
    ("COc1cccc(-c2sc(N)c(C(=O)c3ccc(Cl)cc3)c2CC(C)(C)C)c1", "Adenosine receptor A1 (Homo sapiens) (UniProt P30542)", "fold change (FC)", 6.3),
    ("CC(C)(C)Cc1c(-c2ccccc2)sc(N)c1C(=O)c1ccc(Cl)cc1Cl", "Adenosine receptor A1 (Homo sapiens) (UniProt P30542)", "fold change (FC)", 6.8),
    ("CC(C)(C)Cc1c(-c2ccncc2)sc(N)c1C(=O)c1ccc(Cl)cc1", "Adenosine receptor A1 (Homo sapiens) (UniProt P30542)", "fold change (FC)", 4),
    ("CC(C)(C)Cc1c(/C=C/c2ccc(Cl)cc2)sc(N)c1C(=O)c1ccc(Cl)cc1", "Adenosine receptor A1 (Homo sapiens) (UniProt P30542)", "fold change (FC)", 4.8),
    ("CC(C)(C)Cc1c(-c2ccc(Cl)cc2)sc(N)c1C(=O)c1ccc(Cl)cc1", "Adenosine receptor A1 (Homo sapiens) (UniProt P30542)", "fold change (FC)", 5.8),
    ("Cc1sc(N)c(C(=O)c2cccc(C(F)(F)F)c2)c1C", "Adenosine receptor A1 (Homo sapiens) (UniProt P30542)", "fold change (FC)", 1.3),
    ("COc1ccc(-c2sc(N)c(C(=O)c3ccc(Cl)cc3)c2CC(C)(C)C)cc1", "Adenosine receptor A1 (Homo sapiens) (UniProt P30542)", "fold change (FC)", 6.1),
    ("CC(C)(C)Cc1c(Br)sc(N)c1C(=O)c1cccc(Cl)c1", "Adenosine receptor A1 (Homo sapiens) (UniProt P30542)", "fold change (FC)", 3.6),
    ("CC(C)(C)Cc1csc(N)c1C(=O)c1ccc(Cl)cc1", "Adenosine receptor A1 (Homo sapiens) (UniProt P30542)", "fold change (FC)", 3.9),
    ("CC(C)(C)Cc1c(Br)sc(N)c1C(=O)c1ccc(Cl)cc1", "Adenosine receptor A1 (Homo sapiens) (UniProt P30542)", "fold change (FC)", 6.8),
    ("Cc1ccc(-c2sc(N)c(C(=O)c3ccc(Cl)cc3)c2CC(C)(C)C)cc1", "Adenosine receptor A1 (Homo sapiens) (UniProt P30542)", "fold change (FC)", 6.4),
    ("COc1ccc(-c2sc(N)c(C(=O)c3ccc(C)cc3)c2CC(C)(C)C)cc1", "Adenosine receptor A1 (Homo sapiens) (UniProt P30542)", "fold change (FC)", 7.4),
    ("COc1ccc(-c2sc(N)c(C(=O)c3cccc(C(F)(F)F)c3)c2CC(C)(C)C)cc1", "Adenosine receptor A1 (Homo sapiens) (UniProt P30542)", "fold change (FC)", 4),
    ("CC(C)(C)Cc1c(-c2ccc(OC(F)(F)F)cc2)sc(N)c1C(=O)c1ccc(Cl)cc1", "Adenosine receptor A1 (Homo sapiens) (UniProt P30542)", "fold change (FC)", 6.4),
    ("CC(C)(C)Cc1c(-c2cc(F)ccc2F)sc(N)c1C(=O)c1ccc(Cl)cc1", "Adenosine receptor A1 (Homo sapiens) (UniProt P30542)", "fold change (FC)", 5.3),
    ("Cc1cccc(-c2sc(N)c(C(=O)c3ccc(Cl)cc3)c2CC(C)(C)C)c1", "Adenosine receptor A1 (Homo sapiens) (UniProt P30542)", "fold change (FC)", 4.7),
    ("COCCOc1ccc(-c2sc(N)c(C(=O)c3ccc(Cl)cc3)c2CC(C)(C)C)cc1", "Adenosine receptor A1 (Homo sapiens) (UniProt P30542)", "fold change (FC)", 5.5),
    ("Cc1csc(N)c1C(=O)c1ccc(Cl)cc1", "Adenosine receptor A1 (Homo sapiens) (UniProt P30542)", "fold change (FC)", 1.5),
    ("CC(C)(C)c1csc(N)c1C(=O)c1ccc(Cl)cc1", "Adenosine receptor A1 (Homo sapiens) (UniProt P30542)", "fold change (FC)", 1.3),
    ("Cc1ccccc1-c1sc(N)c(C(=O)c2ccc(Cl)cc2)c1CC(C)(C)C", "Adenosine receptor A1 (Homo sapiens) (UniProt P30542)", "fold change (FC)", 4.1),
    ("Cc1c(-c2ccccc2)sc(N)c1C(=O)c1ccc(Cl)cc1", "Adenosine receptor A1 (Homo sapiens) (UniProt P30542)", "fold change (FC)", 1.5),
    ("CC(C)(C)Cc1c(-c2ccc3c(c2)OCO3)sc(N)c1C(=O)c1ccc(Cl)cc1", "Adenosine receptor A1 (Homo sapiens) (UniProt P30542)", "fold change (FC)", 6.6),
]
